Molecular target: cholesterol esterase (EC 3.1.1.13), CEH (Bos taurus, UniProt P30122)
Construct: purchased Sigma Company, St. Louis, Mo; C-1892; host or cells: bovine pancreas
Sequence (P30122 19-597): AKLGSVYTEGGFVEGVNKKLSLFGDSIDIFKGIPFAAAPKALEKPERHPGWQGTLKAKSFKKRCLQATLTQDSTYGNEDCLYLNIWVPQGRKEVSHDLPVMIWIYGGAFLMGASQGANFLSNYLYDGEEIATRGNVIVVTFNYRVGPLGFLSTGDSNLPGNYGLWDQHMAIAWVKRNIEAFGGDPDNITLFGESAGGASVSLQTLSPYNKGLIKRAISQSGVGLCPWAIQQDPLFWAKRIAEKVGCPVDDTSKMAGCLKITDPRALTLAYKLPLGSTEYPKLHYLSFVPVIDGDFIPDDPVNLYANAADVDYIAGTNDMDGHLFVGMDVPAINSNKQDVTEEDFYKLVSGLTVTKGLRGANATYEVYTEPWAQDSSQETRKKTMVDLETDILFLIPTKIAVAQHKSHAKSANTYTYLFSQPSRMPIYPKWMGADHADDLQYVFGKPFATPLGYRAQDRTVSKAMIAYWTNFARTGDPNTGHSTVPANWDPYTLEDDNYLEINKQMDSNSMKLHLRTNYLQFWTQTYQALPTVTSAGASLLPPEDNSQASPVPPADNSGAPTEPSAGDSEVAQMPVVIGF
Assay: In vitro inhibition of cholesteryl ester formation by cholesterol esterase (CEH)
Assay type: biochemical
Conditions: read-out: In Vitro Results IC50 CEH; 37° C.; cholesterol + oleic acid; bovine pancreas enzyme
pIC50: −log10 of the molar value.

sample smiles: CCCCCCNC(=O)OC1CCN(C(=O)OCCCCCCNC(=O)Oc2ccc(Oc3ccccc3)cc2)CC1
target: cholesterol esterase (EC 3.1.1.13), CEH (Bos taurus, UniProt P30122)
pIC50: 5.96
